System: Human whole blood
Assay: Whole blood assay for IL-1β production
Format: cell-based
Conditions: Table 2, LPS 5.0 ng/ml, 16-18 hr
pIC50: −log10 of the molar value.
Overview of reported pIC50 across a group of compounds:
Readout Kind: pIC50

INSERT INTO results (compound, cmp, test_value) VALUES
  ('O=C[C@H](CC(=O)O)NC(=O)CN1C(=O)C(NC(=O)c2cc(Cl)c(O)c(Cl)c2)N=C(c2ccccc2)c2ccccc21 (stereo partly shown)', '=', 5.00),
  ('Cc1cc(C(=O)NC2N=C(c3ccccc3)c3ccccc3N(CC(=O)N[C@H](C=O)CC(=O)O)C2=O)cc(C)c1O (stereo partly shown)', '=', 5.00),
  ('Nc1ccc(C(=O)NC2N=C(c3ccccc3)c3ccccc3N(CC(=O)N[C@H](C=O)CC(=O)O)C2=O)cc1Cl (stereo partly shown)', '<', 4.70),
  ('Nc1c(Cl)cc(C(=O)NC2N=C(c3ccccc3)c3ccccc3N(CC(=O)N[C@H](C=O)CC(=O)O)C2=O)cc1Cl (stereo partly shown)', '<', 4.70);
